Answer each item with its documented ADCC cytotoxic activity (51Cr release) against QG56.
Target: T1, human CAPRIN-1 expressed on the surface of human cancer cells (human, UniProt Q14444 2-709); also: test concentration or dose not given here
T1 sequence: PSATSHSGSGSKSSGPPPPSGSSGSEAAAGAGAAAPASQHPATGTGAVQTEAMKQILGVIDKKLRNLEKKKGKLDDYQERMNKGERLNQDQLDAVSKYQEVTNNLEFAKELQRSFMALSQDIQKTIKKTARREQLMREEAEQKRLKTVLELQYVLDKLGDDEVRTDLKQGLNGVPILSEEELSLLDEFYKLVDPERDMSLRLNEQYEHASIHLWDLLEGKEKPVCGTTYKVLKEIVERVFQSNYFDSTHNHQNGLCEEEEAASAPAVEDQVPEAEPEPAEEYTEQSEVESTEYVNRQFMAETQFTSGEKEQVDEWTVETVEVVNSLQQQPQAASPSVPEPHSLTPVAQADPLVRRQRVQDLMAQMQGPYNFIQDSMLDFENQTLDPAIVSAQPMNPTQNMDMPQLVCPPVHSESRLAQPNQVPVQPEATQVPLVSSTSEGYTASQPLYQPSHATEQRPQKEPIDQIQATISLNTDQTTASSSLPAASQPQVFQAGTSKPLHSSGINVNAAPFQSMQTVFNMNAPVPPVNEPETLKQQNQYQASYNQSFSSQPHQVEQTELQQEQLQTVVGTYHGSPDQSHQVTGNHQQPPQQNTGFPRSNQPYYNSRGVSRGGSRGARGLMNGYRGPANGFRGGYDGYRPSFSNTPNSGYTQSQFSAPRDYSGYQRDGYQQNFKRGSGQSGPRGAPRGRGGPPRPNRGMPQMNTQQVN
Assay: cell-based or functional assay

Please review the entries below; each comes with its answer.
* human-chicken chimeric monoclonal antibody #2 (antibody, V domains shown) VH: AVTLDESGGGLQTPGGALSLVCKASGFTFRSHSMFWVRQAPGKGLEYVAGIYGVGRSIRYGSAVKGRATMSRDNGQSTVRLQLNNLRAEDTGTYYCAKSGYFSNRRYWDSGAYFIDAWGHGTEVIVS VL: ALTQPASVSANLGGTVEITCSGGYSNYGWYQQKSPGSAPVTVIYYNDKRPSDIPSRFSGSKSGSTGTLTITGVRAEDEAVYYCGGYDSSTDAGIFGAGTTLTV | ≥ 10%
* human-mouse chimeric monoclonal antibody #1 (antibody, V domains shown) VH: GPGLVQPSQSLSITCTVSGFSLTTYDLHWVRQSPGKGLEWLGVIWSGGSTDYNAAFISRLSISKDNSKSQVFFKMNSLQANDTAIYYCARNYGYSAWFAYWGQGTLVTVSA VL: DVLMTQTPLSLPVSLGDQASISCRSSQSIVHSNGNTYLEWYLQKPGQSPKLLIYKVSNRFSGVPDRFSGSGSGTDFTLKISRVEAEDLGVYYCFQGSHVPLTFGAGTKLELKR | ≥ 10%

Now turn to the next binder.
// sample human-mouse chimeric comparative monoclonal antibody 7 (antibody, human IgG1, kappa, V domains shown) VH: LQESGAELARPGASVKLSCKASGYTFTSYWMQWVKQRPGQGLEWIGAIYPGDGDTRYTQKFKGKATLTADKSSSTAYMQLSSLASEDSAVYYCARGEYGNYFAYWGQGTTVTVSS VL: TSDASLGERVTITCKASQDINSYLSWFQQKPGKSPKTLIYRANRLVDGVPSRFSGSGSGQDYSLTISSLEYEDMGIYYCLQYDEFPLTFGGGTKLEIKQ , its ADCC cytotoxic activity (51Cr release) against QG56 was < 5%
